Biological target: HEK cells stably transfected with tetracycline inducible hNR1 and hNR2A (Homo sapiens, UniProt Q05586+Q12879)
Construct: expressed in transfected cells; host or cells: HEK cells, stably transfected, tetracycline/doxycycline inducible
Sequence (Q12879 23-1464, other chains not shown): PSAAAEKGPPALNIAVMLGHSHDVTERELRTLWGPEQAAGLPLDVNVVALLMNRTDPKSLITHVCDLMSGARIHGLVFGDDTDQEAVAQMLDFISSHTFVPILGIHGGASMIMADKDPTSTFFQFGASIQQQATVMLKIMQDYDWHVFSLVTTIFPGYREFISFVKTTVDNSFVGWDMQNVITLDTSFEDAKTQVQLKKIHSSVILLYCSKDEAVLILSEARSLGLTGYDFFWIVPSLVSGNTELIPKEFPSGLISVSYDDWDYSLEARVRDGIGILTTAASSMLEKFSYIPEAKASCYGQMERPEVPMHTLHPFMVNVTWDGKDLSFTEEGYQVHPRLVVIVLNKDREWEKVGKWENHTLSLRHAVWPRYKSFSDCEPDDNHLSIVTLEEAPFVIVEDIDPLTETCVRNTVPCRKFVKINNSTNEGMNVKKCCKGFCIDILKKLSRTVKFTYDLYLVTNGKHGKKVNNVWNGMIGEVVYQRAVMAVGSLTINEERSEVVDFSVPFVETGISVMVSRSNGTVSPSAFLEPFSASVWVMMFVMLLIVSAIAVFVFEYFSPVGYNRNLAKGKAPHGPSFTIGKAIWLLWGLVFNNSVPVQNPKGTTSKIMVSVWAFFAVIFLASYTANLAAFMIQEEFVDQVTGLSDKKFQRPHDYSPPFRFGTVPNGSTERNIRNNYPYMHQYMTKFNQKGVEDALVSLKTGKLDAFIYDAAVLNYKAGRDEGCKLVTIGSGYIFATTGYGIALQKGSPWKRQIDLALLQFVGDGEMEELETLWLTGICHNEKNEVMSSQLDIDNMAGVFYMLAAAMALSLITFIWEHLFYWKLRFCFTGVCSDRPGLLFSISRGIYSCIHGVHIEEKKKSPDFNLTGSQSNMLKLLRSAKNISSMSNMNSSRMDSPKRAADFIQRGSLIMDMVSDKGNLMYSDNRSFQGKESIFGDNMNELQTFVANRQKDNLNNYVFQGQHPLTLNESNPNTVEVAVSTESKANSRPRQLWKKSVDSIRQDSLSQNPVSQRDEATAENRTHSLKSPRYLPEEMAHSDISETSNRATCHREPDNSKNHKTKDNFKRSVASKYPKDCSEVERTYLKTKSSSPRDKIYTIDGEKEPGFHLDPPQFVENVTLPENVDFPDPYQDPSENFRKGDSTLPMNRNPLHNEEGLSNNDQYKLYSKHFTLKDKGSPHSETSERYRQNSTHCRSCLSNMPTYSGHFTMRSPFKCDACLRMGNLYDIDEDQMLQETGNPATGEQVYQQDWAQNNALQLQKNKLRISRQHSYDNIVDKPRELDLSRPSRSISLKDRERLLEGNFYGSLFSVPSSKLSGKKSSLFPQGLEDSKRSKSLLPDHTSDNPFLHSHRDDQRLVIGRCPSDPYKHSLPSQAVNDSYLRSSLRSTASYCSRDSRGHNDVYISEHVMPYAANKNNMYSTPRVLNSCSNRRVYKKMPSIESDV
Test: Assay 1: Cell-Based Assay, cytosolic calcium response to positive allosteric modulators (with 30 μM glycine and 300 nM L-glutamate, EC30)
Settings: Table 2; responses scaled relative to 100 μM L-glutamate maximal response (100%) and 0 μM L-glutamate (0%)
Measure: Max %

Field: example entries. Status: answers known.
{"Molecule": "CCN(Cc1cc(=O)n2cc(C)sc2n1)c1ccccc1 [Example 11.6]", "Result": "133%"}
{"Molecule": "CCN(Cc1cc(=O)n2c(-c3cc(F)cc(F)c3)c(C)sc2n1)c1ccc(F)cc1 [Example 5.55]", "Result": "111%"}
{"Molecule": "CCN(Cc1cc(=O)n2c(-c3cnn(C)c3)c(C)sc2n1)c1ccc(F)cc1 [Example 5.33]", "Result": "120%"}
{"Molecule": "CCN(Cc1cc(=O)n2c(CO)c(C)sc2n1)c1cccc(C#N)c1 [Example 10.23]", "Result": "169%"}

// query State, in one line, measured Max % of CCN(Cc1cc(=O)n2c(-c3cncc(C#N)c3)c(C)sc2n1)c1ccc(F)cc1 [Example 5.35]
// result 136%

// query State, in one line, measured Max % of CCN(Cc1cc(=O)n2c3c(sc2n1)CCC3CC#N)c1ccc(F)cc1 (stereo not drawn) [Example 8.13]
// result 162%

// query State, in one line, measured Max % of Cc1cn2c(=O)cc(Cn3nc(C(F)(F)F)cc3C(F)(F)F)nc2s1 [Example 15.33]
// result 51.8%

// query State, in one line, measured Max % of CCN(Cc1cc(=O)n2c(C#N)c(C)sc2n1)c1ccc(F)cc1 [Example 7.3]
// result 156%

// query State, in one line, measured Max % of Cc1sc2nc(COc3ccc(F)cc3)cc(=O)n2c1C1CC1C#N (single isomer, unassigned) [Example 4.19]
// result 46.9%

====

Recorded measurements of Max %, one per entry
Target: HEK cells stably transfected with tetracycline inducible hNR1 and hNR2A (Homo sapiens, UniProt Q05586+Q12879)
Construct: expressed in transfected cells; host or cells: HEK cells, stably transfected, tetracycline/doxycycline inducible
Assay: Assay 1: Cell-Based Assay, cytosolic calcium response to positive allosteric modulators (with 30 μM glycine and 300 nM L-glutamate, EC30)
Conditions: Table 2; responses scaled relative to 100 μM L-glutamate maximal response (100%) and 0 μM L-glutamate (0%)
Reply with just the number (in %).

Field: example entries. Status: answers known.
{"Compound": "CCN(Cc1cc(=O)n2c(C#N)c(C)sc2n1)c1cc(F)cc(F)c1 [Example 7.9]", "Max % / %": 121}
{"Compound": "CCNC(=O)c1csc2nc(Cc3cccc(C#N)c3F)c(F)c(=O)n12 [Example 21.26]", "Max % / %": 76.5}
{"Compound": "Cc1sc2nc(Cn3nc(C4CC4)cc3C(F)(F)F)cc(=O)n2c1C#N [Example 17.3]", "Max % / %": 104}

// query State, in one line, measured Max % of CNC(=O)c1c(C)sc2nc(Cc3ccc(Cl)cc3C)cc(=O)n12 [Example 21.41]
// result 59.7

// query State, in one line, measured Max % of CNC(=O)c1c(C)sc2nc(Cc3cc(C(F)(F)F)ccc3C3CC3)cc(=O)n12 [Example 21.17]
// result 107

// query State, in one line, measured Max % of C=C(C)c1c(C)sc2nc(CN(CC)c3ccc(F)cc3)cc(=O)n12 [Example 5.29]
// result 147

====

Target: HEK cells stably transfected with tetracycline inducible hNR1 and hNR2A (Homo sapiens, UniProt Q05586+Q12879)
Construct: expressed in transfected cells; host or cells: HEK cells, stably transfected, tetracycline/doxycycline inducible
Assay: Assay 1: Cell-Based Assay, cytosolic calcium response to positive allosteric modulators (with 30 μM glycine and 300 nM L-glutamate, EC30)
Details: Table 3; cytosolic calcium response, with 30 μM glycine and 300 nM L-glutamate (EC30); — = no plateau was reached
Recorded measurements of EC50, one per entry
Reply with just the number (in nM).

// query State, in one line, measured EC50 of CCNC(=O)c1c(C)sc2nc(CN(CC)c3ccc(Br)cn3)cc(=O)n12 [compound 204]
// result 5120

// query State, in one line, measured EC50 of CCNC(=O)c1c(OC)sc2nc(Cn3nc(Cl)cc3C(F)(F)F)cc(=O)n12 [compound 127]
// result 4870

// query State, in one line, measured EC50 of CCNC(=O)c1c(C(F)F)sc2nc(Cn3nc(C(F)(F)F)cc3Cl)cc(=O)n12 [compound 258]
// result 227

// query State, in one line, measured EC50 of Cc1sc2nc(Cc3nc(C(F)(F)F)cn3C)cc(=O)n2c1C1CC1C#N (stereo not shown) [compound 278]
// result 10600

// query State, in one line, measured EC50 of Cc1sc2nc(Cn3nc(C(F)(F)F)cc3Cl)cc(=O)n2c1C#N [compound 114]
// result 1340

// query State, in one line, measured EC50 of CCC(=O)c1c(C)sc2nc(Cn3nc(C(F)(F)F)cc3Cl)cc(=O)n12 [compound 140]
// result 147

// query State, in one line, measured EC50 of CNC(=O)c1c(C(F)(F)F)sc2nc(Cn3nc(Cl)cc3C(F)(F)F)cc(=O)n12 [compound 56]
// result 2270

// query State, in one line, measured EC50 of Cc1sc2nc(Cn3nc(C(F)(F)F)cc3Cl)cc(=O)n2c1-c1cncc(Cl)c1 [compound 149]
// result 729

====

Recorded measurements of pEC50, one per entry
Molecular target: HEK cells stably transfected with tetracycline inducible hNR1 and hNR2A (Homo sapiens, UniProt Q05586+Q12879)
Construct: expressed in transfected cells; host or cells: HEK cells, stably transfected, tetracycline/doxycycline inducible
Assay: Assay 1: Cell-Based Assay, cytosolic calcium response to positive allosteric modulators (with 30 μM glycine and 300 nM L-glutamate, EC30)
Details: Table 3; cytosolic calcium response, with 30 μM glycine and 300 nM L-glutamate (EC30); — = no plateau was reached
Experimental: Assay 1: Cell-Based Assay HEK cells stably transfected with tetracycline inducible hNR1 and hNR2A were seeded into clear bottom 384 well poly-D-lysine coated plates (2.5×10^4 cells per well) in Minimum Essential Media (MEM; without L-) including 7.5 μg mL^−1 doxycycline and 500 μM (+)-ketamine. The cells were incubated at 37° C. in 5% CO2 for 24 h. […] Compounds were added after a 10 second baseline read and maximum level of relative fluorescence units (RFU) was measured over a 5 min period. […]
// field semantics: pEC50 = negative decimal log of concentration (mol/L)

// query State, in one line, measured pEC50 of "CNC(=O)Cc1c(C)sc2nc(Cc3cccc(C4CC4)c3F)cc(=O)n12"
// result 5.94

// query State, in one line, measured pEC50 of CCN(Cc1cc(=O)n2c(C3CC3CO)c(C)sc2n1)c1ccc(Cl)cn1 (centres unmarked)
// result 7.19

// query State, in one line, measured pEC50 of "CCNC(=O)c1c(C)sc2nc(CN(CC)c3ccc(Cl)cn3)cc(=O)n12"
// result 5.55

// query State, in one line, measured pEC50 of "Cc1sc2nc(Cn3nc(Cl)cc3C(F)(F)F)cc(=O)n2c1Cl"
// result 6.61

// query State, in one line, measured pEC50 of "CCNC(=O)c1c(C(F)(F)F)sc2nc(CN(CC)c3ccc(F)cn3)cc(=O)n12"
// result 5.95

====

Recorded measurements of EC50, one per entry
Target: HEK cells stably transfected with tetracycline inducible hNR1 and hNR2A (Homo sapiens, UniProt Q05586+Q12879)
Construct: expressed in transfected cells; host or cells: HEK cells, stably transfected, tetracycline/doxycycline inducible
Test: Assay 1: Cell-Based Assay, cytosolic calcium response to positive allosteric modulators (with 30 μM glycine and 300 nM L-glutamate, EC30)
Conditions: Table 3; cytosolic calcium response, with 30 μM glycine and 300 nM L-glutamate (EC30); — = no plateau was reached
Report as: number unit

Field: example entries. Status: answers known.
{"Compound": "CCNC(=O)c1c(C)sc2nc(Cn3nc(Cl)cc3Cl)cc(=O)n12", "EC50": "562 nM"}
{"Compound": "Cc1sc2nc(Cn3nc(C(F)(F)F)cc3Cl)cc(=O)n2c1C(C)O (centres unmarked)", "EC50": "1880 nM"}

// query State, in one line, measured EC50 of "Cc1sc2nc(Cn3nc(C(F)(F)F)cc3Cl)cc(=O)n2c1C(F)(F)F"
// result 753 nM

// query State, in one line, measured EC50 of N#Cc1cccc(Cc2cc(=O)n3c(C4CC4C(F)(F)F)c(C(F)(F)F)sc3n2)c1F (centres unmarked) [compound 88]
// result 3700 nM

// query State, in one line, measured EC50 of "CC[C@@H](C)NC(=O)c1c(C)sc2nc(Cc3cccc(C(F)(F)F)c3F)cc(=O)n12"
// result 698 nM

Provenance of the data: patent US9988400B2
